Reported TGI values for a set of molecules
Tested on: LOX IMVI melanoma
Test: NCI tumour cell line growth inhibition, 48 h
Output spec: scalar in µM, unitless text.

Known results for molecules:
Exercise: Need TGI of Cc1cc(N2CCOCC2)nc(N(CCNc2ccnc3cc(Cl)ccc23)Cc2cccs2)n1 , thanks.
Key: 3.18

Exercise: Need TGI of Cc1ccc(SCN2CCCCC2)cc1 (tested in a mixture with another compound) , thanks.
Key: 14.3

Exercise: Need TGI of CCCCCCCCCCCCOC1C(C(COC2OC(C(O)CO)C3OC(C)(C)OC23)OC(=O)Nc2ccc([N+](=O)[O-])cc2)OC2OC(C)(C)OC21 (configuration not stated) , thanks.
Key: 3.79

With those in mind, consider the next molecule.
Exercise: Need TGI of O=C(/C=C/CN1CCCCC1)Nc1cc2c(Nc3ccc(F)c(Cl)c3F)ncnc2cc1OCCOC(F)F , thanks.
Key: 2.59

====

System: SR leukemia
Assay: NCI tumour cell line growth inhibition, 48 h
property_name: log10(TGI) (log10 of the value in µM)
All values: base-10 log of TGI in µM.

Exercise: Hello, I am looking for reported log10(TGI) with SR leukemia for C[As](C)SCC(COC(=O)c1ccccc1)OC(=O)c1ccccc1 (stereo not given) . Could you help?
Key: -0.74

Exercise: Hello, I am looking for reported log10(TGI) with SR leukemia for Clc1ccc(CCN2CCN(CCCc3ccccc3)CC2)cc1Cl . Could you help?
Key: 1.90

Exercise: Hello, I am looking for reported log10(TGI) with SR leukemia for Oc1ccc(-c2nc(-c3ccc4oc5ccc(-c6[nH]c(-c7ccc(O)cc7)nc6-c6ccccc6)cc5c4c3)c(-c3ccccc3)[nH]2)cc1 . Could you help?
Key: 0.71

Exercise: Hello, I am looking for reported log10(TGI) with SR leukemia for Cc1ccc(S(=O)(=O)NC2(C=O)CCC(C(C)(C)C)CC2)cc1 (stereo not given) . Could you help?
Key: 1.57

Exercise: Hello, I am looking for reported log10(TGI) with SR leukemia for Oc1c(Br)cc(Br)c2cccnc12 . Could you help?
Key: 1.14

---
Exercise: Hello, I am looking for reported log10(TGI) with SR leukemia for Cc1cc(N2CCOCC2)nc(N(CCNc2ccnc3cc(Cl)ccc23)Cc2cccs2)n1 . Could you help?
Key: 0.60

Exercise: Hello, I am looking for reported log10(TGI) with SR leukemia for COc1cc2c(cc1Nc1nc(Nc3ccsc3C(N)=O)c3cc[nH]c3n1)N(C(=O)CN(C)C)CCC2 . Could you help?
Key: 0.54

====

System: 786-0 renal
Experiment: NCI tumour cell line growth inhibition, 48 h
property_name: TGI

Known results for compounds:
Exercise: Need TGI of COc1ccc(/C(C)=C(\c2ccc(Cl)cc2)c2ccc(OCCN3CCCCC3)cc2)cc1F , thanks.
Key: 5.3 µM

Exercise: Need TGI of N#Cc1ccc(NC(=NCC(=O)O)Nc2ccc3ccccc3c2)cc1 , thanks.
Key: > 10 µM

Exercise: Need TGI of O=C(NC(c1ccccc1)C(O)C(=O)OCc1ccc2c(c1)C(=O)c1ccccc1C2=O)c1ccccc1 (centres undefined) , thanks.
Key: 6.4 µM

---
Exercise: Need TGI of COc1ccc(N2CCN(CC(=O)N3CCN(c4nnc(-c5ccc(Cl)cc5)c(-c5ccc(Cl)cc5)n4)CC3)CC2)cc1 , thanks.
Key: > 100 µM

Exercise: Need TGI of O=C1OC2C(O)COC2(OCc2c[nH]c3ccccc23)C1O (centres undefined) (tested in a mixture with another compound) , thanks.
Key: > 100 µM
